Sequence of the target: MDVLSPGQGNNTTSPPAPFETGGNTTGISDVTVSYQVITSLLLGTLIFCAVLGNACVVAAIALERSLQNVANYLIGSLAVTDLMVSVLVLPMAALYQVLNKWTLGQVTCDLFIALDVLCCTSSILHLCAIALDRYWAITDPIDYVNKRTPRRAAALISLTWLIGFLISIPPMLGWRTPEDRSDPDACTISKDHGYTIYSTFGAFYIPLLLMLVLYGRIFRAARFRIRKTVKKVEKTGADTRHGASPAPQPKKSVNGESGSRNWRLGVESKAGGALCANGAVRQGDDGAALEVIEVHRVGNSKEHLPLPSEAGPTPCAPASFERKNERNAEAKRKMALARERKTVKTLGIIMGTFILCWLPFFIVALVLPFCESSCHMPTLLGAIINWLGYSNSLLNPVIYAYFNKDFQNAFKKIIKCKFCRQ
measuredAttribute: Ki (nM)
Express it in nM; write the number only.

// Ki lookup, key: CN(C)c1nc(N[C@H]2CC[C@@H](NC(=O)c3ccc(F)c(F)c3)CC2)nc2ccccc12 16.9

* * *

- assayedTarget: UniProt:P41595
- Sequence (P41595 whole entry): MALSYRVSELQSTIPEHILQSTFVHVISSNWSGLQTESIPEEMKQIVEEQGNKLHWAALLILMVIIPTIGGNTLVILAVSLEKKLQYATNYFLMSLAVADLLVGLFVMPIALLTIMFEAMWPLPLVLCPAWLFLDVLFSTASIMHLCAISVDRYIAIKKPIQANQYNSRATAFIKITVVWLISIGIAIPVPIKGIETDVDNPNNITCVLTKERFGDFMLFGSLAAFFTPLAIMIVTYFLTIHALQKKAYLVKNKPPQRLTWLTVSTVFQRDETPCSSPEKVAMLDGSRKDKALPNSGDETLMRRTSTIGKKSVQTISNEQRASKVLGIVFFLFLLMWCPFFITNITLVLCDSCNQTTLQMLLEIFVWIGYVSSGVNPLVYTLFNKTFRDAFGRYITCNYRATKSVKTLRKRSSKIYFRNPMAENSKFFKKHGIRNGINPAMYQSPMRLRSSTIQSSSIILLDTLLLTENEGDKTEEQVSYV
measuredAttribute: Ki (nM)
Numeric only. Scale: nM

Look at this compound and give its reported Ki. CN(C)c1nc(N[C@H]2CC[C@@H](NCCc3ccc(Br)cc3OC(F)(F)F)CC2)nc2ccccc12 [CAS_510732-84-0] 266

Numbers sourced from BindingDB's records for doi:10.1124/jpet.104.081711.
